B1: S. cerevisiae Abp1 (full length; SH3 domain 535-592 mutated) / Hua2 (parent)
chain 1: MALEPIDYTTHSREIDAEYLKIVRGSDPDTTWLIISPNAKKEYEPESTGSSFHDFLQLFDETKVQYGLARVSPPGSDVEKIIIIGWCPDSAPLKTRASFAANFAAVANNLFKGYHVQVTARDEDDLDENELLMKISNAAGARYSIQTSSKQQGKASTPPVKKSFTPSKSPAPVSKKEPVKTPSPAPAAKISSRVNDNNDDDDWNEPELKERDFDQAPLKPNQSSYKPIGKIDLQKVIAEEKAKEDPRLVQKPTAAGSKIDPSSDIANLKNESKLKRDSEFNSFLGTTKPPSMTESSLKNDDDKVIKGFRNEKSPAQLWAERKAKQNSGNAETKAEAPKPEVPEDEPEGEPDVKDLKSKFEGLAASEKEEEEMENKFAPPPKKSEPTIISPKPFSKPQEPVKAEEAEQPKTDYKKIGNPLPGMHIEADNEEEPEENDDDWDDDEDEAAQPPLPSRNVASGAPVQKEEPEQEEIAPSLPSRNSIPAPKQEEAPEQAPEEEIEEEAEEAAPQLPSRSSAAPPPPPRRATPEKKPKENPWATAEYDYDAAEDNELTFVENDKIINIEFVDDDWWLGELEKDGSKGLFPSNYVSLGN
chain 2: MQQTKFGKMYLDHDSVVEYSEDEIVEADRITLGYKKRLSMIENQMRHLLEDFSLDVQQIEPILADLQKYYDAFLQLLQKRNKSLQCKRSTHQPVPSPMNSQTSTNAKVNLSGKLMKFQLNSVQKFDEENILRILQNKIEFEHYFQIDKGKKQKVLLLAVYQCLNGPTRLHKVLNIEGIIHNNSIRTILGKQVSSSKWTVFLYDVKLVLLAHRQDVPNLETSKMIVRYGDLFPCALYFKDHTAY

Variants of: B1
assay-overview: DHFR protein-fragment complementation in yeast (Abp1-DHFR F[1,2] x partner-DHFR F[3]), deep mutational scanning, second methotrexate selection vs reference
condition-parameters: with Hua2; S. cerevisiae, DHFR-PCA selection in liquid with methotrexate at 30 C, two 72 h selections (the score uses the second); reference = the pre-selection culture; not an affinity; scale: DMS score: mean over two replicates of log2(f_test/f_ref + 0.5)/ln 2, minus the synonymous-codon median
measured-attribute: screen value

In the examples that follow, each entry is paired with its recorded screen value.
Recorded screen value for chain 1 D577W , please? -2.9

Returns the measured screen value for the input variant. Input: chain 1 N556V -2.96

Given chain 1 S579F , state its recorded screen value. -2.55

Name the reported screen value value associated with the variant chain 1 N561Q -1.98

For chain 1 F564A , what is its reported screen value? -2.55

What measured screen value goes with chain 1 L590K ? -2.78

1 = chain 1 A537F
2 = chain 1 V565F
Hi team, can someone confirm which has the larger screen value: 1 or 2 ? Thanks. Answer by quoting the chosen item's label. 2
(2: -1.5, 1: -2.93)
